FYI, the data here is from patent US12595248B2.

- Target Of Assay: PRMT5-MEP50 enzyme complex (Homo sapiens, UniProt O14744)
- Construct: Full-length (FL)-PRMT5-MEP50 enzyme complex (recombinant proteins from baculovirus-transfected Sf21 cells: FL-PRMT5; MW=73837 kDa and FL-MEP50; MW=38614); made in house; host or cells: baculovirus-transfected Sf21 cells
- Sequence (O14744 whole entry): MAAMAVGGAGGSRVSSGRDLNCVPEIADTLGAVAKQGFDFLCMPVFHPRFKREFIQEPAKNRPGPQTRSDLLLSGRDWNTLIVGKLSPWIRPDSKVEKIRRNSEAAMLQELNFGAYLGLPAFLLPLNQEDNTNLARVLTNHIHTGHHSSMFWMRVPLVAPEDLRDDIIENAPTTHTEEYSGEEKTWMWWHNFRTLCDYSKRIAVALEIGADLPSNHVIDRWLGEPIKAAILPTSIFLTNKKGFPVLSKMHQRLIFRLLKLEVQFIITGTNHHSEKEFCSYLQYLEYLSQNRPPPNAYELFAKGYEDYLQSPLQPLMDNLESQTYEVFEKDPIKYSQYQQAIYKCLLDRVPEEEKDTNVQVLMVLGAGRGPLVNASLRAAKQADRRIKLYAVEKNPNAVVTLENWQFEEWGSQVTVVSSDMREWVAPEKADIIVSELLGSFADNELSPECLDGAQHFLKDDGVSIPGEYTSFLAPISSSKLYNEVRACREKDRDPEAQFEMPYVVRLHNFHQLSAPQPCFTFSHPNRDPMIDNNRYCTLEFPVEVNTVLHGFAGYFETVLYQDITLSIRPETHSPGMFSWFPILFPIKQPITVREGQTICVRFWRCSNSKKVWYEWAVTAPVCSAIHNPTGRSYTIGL
- Sequence (Q9BQA1 whole entry partner): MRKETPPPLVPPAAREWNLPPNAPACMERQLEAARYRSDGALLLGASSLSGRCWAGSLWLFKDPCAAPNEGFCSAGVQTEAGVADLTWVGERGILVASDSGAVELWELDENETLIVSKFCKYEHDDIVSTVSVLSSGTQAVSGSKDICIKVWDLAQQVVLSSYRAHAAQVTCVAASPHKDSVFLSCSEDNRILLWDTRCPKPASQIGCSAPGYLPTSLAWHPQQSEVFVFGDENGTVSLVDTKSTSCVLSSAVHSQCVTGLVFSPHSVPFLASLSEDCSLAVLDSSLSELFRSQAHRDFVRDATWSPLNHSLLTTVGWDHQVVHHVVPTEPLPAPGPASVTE
- Assay Details: PRMT5-MEP50 Enzyme Methylation Assay (Version A)
- Assay type: biochemical
- Protocol Conditions: first of two EC50s: 7 parameters biphasic model; read-out: Enzyme Methylation Assay Version A (EC50_1)
Measured Metric: EC50 (nM)

- Molecule: "COc1nc2nc(C(=O)N3CC[C@H](N4CCc5ccccc5C4)[C@@H](O)C3)cn2cc1Br [Example 69]"
  Target Of Assay: "PRMT5-MEP50 enzyme complex (Homo sapiens, UniProt O14744)"
  Measured Metric: "EC50"
  Measurement Unit: "nM"
  Value Measured: 1.2
- Molecule: "CC(=O)N1CCC(Nc2cc(C(=O)N3CCC(N4CCc5ccccc5C4)C(O)C3(C)C)ccn2)CC1 (single isomer, unassigned) [Example 22]"
  Target Of Assay: "PRMT5-MEP50 enzyme complex (Homo sapiens, UniProt O14744)"
  Measured Metric: "EC50"
  Measurement Unit: "nM"
  Value Measured: 159

1. CC(=O)N1C[C@H]2CC[C@@H](C1)C2Nc1cc(C(=O)N2CC[C@H](N3CCc4ccccc4C3)[C@@H](O)C2)c(F)cn1 (stereo partly shown) [Example 124]
2. CCOc1nc(Br)cn2cc(C(=O)N3CC[C@H](N4CCc5ccccc5C4)[C@@H](O)C3)nc12 [Example 51]
Problem: Please indicate which item has the smaller measured EC50: 1 versus 2 Answer by stating the label of the chosen item.
Result: 2

---

- Target Of Assay: PRMT5-MEP50 enzyme complex (Homo sapiens, UniProt O14744)
- Construct: Full-length (FL)-PRMT5-MEP50 enzyme complex (recombinant proteins from baculovirus-transfected Sf21 cells: FL-PRMT5; MW=73837 kDa and FL-MEP50; MW=38614); made in house; host or cells: baculovirus-transfected Sf21 cells
- Assay Details: PRMT5-MEP50 Enzyme Methylation Assay (Version B)
- Format: biochemical
- Protocol Conditions: second of two EC50s: 7 parameters biphasic model; read-out: Enzyme Methylation Assay Version B (EC50_2)
pEC50: −log10 of the molar value.
Measured Metric: pEC50

Study these solved cases before continuing.
- Molecule: "CC1OC(=O)Nc2cc(C(=O)N3CC[C@H](N4CCc5ccccc5C4)[C@@H](O)C3)c(F)cc21 (single isomer, unassigned) [Example 99]"
  Value Measured: 5.06
- Molecule: "CC(=O)N1CCC(Nc2nccc(C(=O)N3CC[C@H](N4CCc5ccccc5C4)[C@@H](O)C3)c2F)C(F)(F)C1 (single isomer, unassigned) [Example 15]"
  Value Measured: 5.43

A. CCOC(=O)N1CCC(Nc2cc(C(=O)N3CC[C@H](N4CCc5ccccc5C4)[C@@H](O)C3)c(F)cn2)CC1 [Example 106]
B. CC1OC(=O)Nc2cc(C(=O)N3CC[C@H](N4CCc5ccccc5C4)[C@@H](O)C3)ccc21 (single isomer, unassigned) [Example 91]
Problem: Look at A and B . Which one has the lower recorded pEC50 number? State your choice using its label.
Result: B
(B: 4.15, A: 6.30)

---

- Target Of Assay: PRMT5-MEP50 enzyme complex (Homo sapiens)
- Construct: Full-length (FL)-PRMT5-MEP50 enzyme complex (recombinant proteins from baculovirus-transfected Sf21 cells: FL-PRMT5; MW=73837 kDa and FL-MEP50; MW=38614); made in house; host or cells: baculovirus-transfected Sf21 cells
- Assay Details: PRMT5-MEP50 Enzyme Methylation Assay (Version B)
- Type: biochemical
- Protocol Conditions: second of two EC50s: 7 parameters biphasic model; read-out: Enzyme Methylation Assay Version B (EC50_2)
pEC50: −log10 of the molar value.
Measured Metric: pEC50

Example entries begin here.
- Molecule: "O=C(c1cn2c(n1)CCC(C(F)(F)F)C2)N1CC[C@H](N2CCc3ccccc3C2)[C@@H](O)C1 (single isomer, unassigned) [Example 83]"
  pEC50: 5.02
- Molecule: "CC(=O)N1CCC(Nc2cc(C(=O)N3CC[C@@H](N4CCc5ccccc5C4)[C@H](O)C3)ccn2)C(F)(F)C1 (single isomer, unassigned) [Example 9]"
  pEC50: 5.06
- Molecule: "O=C(c1ccc(OCC(F)(F)F)nc1)N1CC[C@H](N2CCc3ccccc3C2)[C@@H](O)C1"
  pEC50: 5.49

I. CC(=O)N1CCC(Nc2cc(C(=O)N3CC[C@@H](N4CCc5ccccc5C4)[C@H](O)C3)c(F)cn2)CC1
II. O=C(c1ccc(-c2ncnn2C2CC2)cc1)N1CC[C@H](N2CCc3ccccc3C2)[C@@H](O)C1
Problem: Please tell me which of the two, I or II , has the higher reported pEC50 value. Answer by quoting the chosen item's label.
Result: II
(II: 5.33, I: 4.43)

---

- Target Of Assay: PRMT5-MEP50 enzyme complex (Homo sapiens, UniProt O14744)
- Construct: Full-length (FL)-PRMT5-MEP50 enzyme complex (recombinant proteins from baculovirus-transfected Sf21 cells: FL-PRMT5; MW=73837 kDa and FL-MEP50; MW=38614); made in house; host or cells: baculovirus-transfected Sf21 cells
- Assay Details: PRMT5-MEP50 Enzyme Methylation Assay (Version B)
- Assay type: biochemical
- Protocol Conditions: second of two EC50s: 7 parameters biphasic model; read-out: Enzyme Methylation Assay Version B (EC50_2)
Measured Metric: EC50 (µM)

Completed entries (count: 4):
- Compound: "O=C(c1cn2cc(Br)ccc2n1)N1CC[C@@H](N2CCc3ccccc3C2)[C@H](O)C1 (single isomer, unassigned) [Example 2]"
  Measured Metric: "EC50"
  Value Measured: 5.89
- Compound: "CC(=O)N1CCC(Nc2cc(C(=O)N3CCC(N4Cc5ccccc5C(F)(F)C4)C(O)C3)c(Cl)cn2)CC1 (single isomer, unassigned) [Example 28]"
  Measured Metric: "EC50"
  Value Measured: 45.2
- Compound: "CC1OC(=O)Nc2cc(C(=O)N3CC[C@@H](N4CCc5ccccc5C4)[C@H](O)C3)ccc21 (single isomer, unassigned) [Example 92]"
  Measured Metric: "EC50"
  Value Measured: 2.46
- Compound: "CC(=O)N1CCC(Nc2nccc(C(=O)N3CC[C@@H](N4CCc5ccccc5C4)[C@H](O)C3)c2F)C(F)(F)C1 (single isomer, unassigned) [Example 16]"
  Measured Metric: "EC50"
  Value Measured: 83.2

1. O=C(c1ccn(CC(F)(F)F)c(=O)c1)N1CC[C@H](N2CCc3ccccc3C2)[C@@H](O)C1 [Example 31]
2. CC1(C)CC(=O)Nc2cc(C(=O)N3CC[C@H](N4CCc5ccccc5C4)[C@@H](O)C3)ccc21 [Example 96]
Problem: Of 1 and 2 , which carries the smaller reported EC50 figure? Write down the label attached to your selection.
Result: 2

1. CCC1Oc2ccc(C(=O)N3CC[C@@H](N4CCc5ccccc5C4)[C@H](O)C3)cc2NC1=O (single isomer, unassigned) [Example 13]
2. CC(=O)N1CCC(Nc2cc(C(=O)N3CCC(N4CCc5ccccc5C4)C(O)C3C)ccn2)CC1 (single isomer, unassigned) [Example 20]
Problem: Choose between 1 and 2 : whose measured EC50 value is numerically larger? Answer with the label corresponding to your selection.
Result: 1

a. CC1OC(=O)Nc2cc(C(=O)N3CC[C@@H](N4CCc5ccccc5C4)[C@H](O)C3)ccc21 (single isomer, unassigned) [Example 93]
b. CCC1Oc2ccc(C(=O)N3CC[C@H](N4CCc5ccccc5C4)[C@@H](O)C3)cc2NC1=O (single isomer, unassigned) [Example 10]
Problem: Given the listed items, does a or b have the lesser reported EC50? Reply with the label of the item you choose.
Result: b
(b: 4.62 µM, a: 11.8 µM)

---

- Target Of Assay: PRMT5 (Homo sapiens, UniProt O14744)
- Construct: seeded with 4000 MCF-7 cells in 30 μl media; endogenous in cells
- Assay Details: PRMT5 Cell Target Engagement (TE) Assay
- Protocol Conditions: MCF-7 cells, treated for 3 days, symmetric dimethylation of arginine (SDMA) by high content imaging
Measured Metric: EC50 (µM)

1. CC1(C)CC(=O)Nc2cc(C(=O)N3CC[C@H](N4CCc5ccccc5C4)[C@@H](O)C3)ccc21
2. O=C(c1cn2cc(Br)ccc2n1)N1CC[C@@H](N2CCc3ccccc3C2)[C@H](O)C1 (single isomer, unassigned)
Problem: Of 1 and 2 , which carries the smaller reported EC50 figure? Answer with the label corresponding to your selection.
Result: 1
(1: 0.331 µM, 2: 0.509 µM)

P. CC1OC(=O)Nc2cc(C(=O)N3CC[C@H](N4CCc5ccccc5C4)[C@@H](O)C3)c(F)cc21 (single isomer, unassigned) [Example 100]
Q. CC(=O)N1CCC(Nc2cc(C(=O)N3CCC(N4Cc5ccccc5C(F)(F)C4)C(O)C3)c(Cl)cn2)CC1 (single isomer, unassigned) [Example 28]
Problem: Hi there, can you help? I need to know whether P or Q has lower measured EC50. Indicate your choice by writing its label.
Result: P
(P: 0.015 µM, Q: 1.66 µM)

a. O=C(c1cc(NC2CCN3C(=O)CCC3C2)ncc1F)N1CC[C@H](N2CCc3ccccc3C2)[C@@H](O)C1 (single isomer, unassigned) [Example 116]
b. CC(=O)N1CC2CC1CC2Nc1cc(C(=O)N2CC[C@H](N3CCc4ccccc4C3)[C@@H](O)C2)c(F)cn1 (single isomer, unassigned) [Example 119]
Problem: Returns: the label, a or b , whose recorded EC50 is the lower number. Record your answer as the label of the chosen record.
Result: a
(a: 0.0066 µM, b: 0.015 µM)
